# targetSystem: human fyn SH2 domain (Homo sapiens, UniProt P06241)
# Sequence (P06241 143-252): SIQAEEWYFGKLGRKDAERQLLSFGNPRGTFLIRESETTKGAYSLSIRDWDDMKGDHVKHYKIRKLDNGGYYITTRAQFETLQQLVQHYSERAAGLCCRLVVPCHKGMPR
measuredAttribute: Ki

[
  {
    "compound": "Cc1nc2sc3c(c2c2[nH][nH]c(=O)c12)CCC1(C3)OCCO1 [Compound 3]",
    "measuredAttribute": "Ki",
    "observed": "> 1 mM"
  },
  {
    "compound": "Cc1nc2sc3c(c2c2c1c(=O)[nH]n2C)CCC1(C3)OCCO1 [Compound 5]",
    "measuredAttribute": "Ki",
    "observed": "> 1 mM"
  },
  {
    "compound": "N[C@@H](Cc1cc(Br)c(Oc2ccc(O)c(Cc3ccc(O)nn3)c2)c(Br)c1)C(=O)O [Compound 2]",
    "measuredAttribute": "Ki",
    "observed": "> 1 mM"
  }
]
